Some binders, each annotated with its measured Kd.
target: EN2320 (HER3/Fc homodimer) (human, UniProt P21860 20-640); experiment: SPR (Biacore 8K), trap on anti-human Fc chip
Sequence (P21860 20-640 Y265A): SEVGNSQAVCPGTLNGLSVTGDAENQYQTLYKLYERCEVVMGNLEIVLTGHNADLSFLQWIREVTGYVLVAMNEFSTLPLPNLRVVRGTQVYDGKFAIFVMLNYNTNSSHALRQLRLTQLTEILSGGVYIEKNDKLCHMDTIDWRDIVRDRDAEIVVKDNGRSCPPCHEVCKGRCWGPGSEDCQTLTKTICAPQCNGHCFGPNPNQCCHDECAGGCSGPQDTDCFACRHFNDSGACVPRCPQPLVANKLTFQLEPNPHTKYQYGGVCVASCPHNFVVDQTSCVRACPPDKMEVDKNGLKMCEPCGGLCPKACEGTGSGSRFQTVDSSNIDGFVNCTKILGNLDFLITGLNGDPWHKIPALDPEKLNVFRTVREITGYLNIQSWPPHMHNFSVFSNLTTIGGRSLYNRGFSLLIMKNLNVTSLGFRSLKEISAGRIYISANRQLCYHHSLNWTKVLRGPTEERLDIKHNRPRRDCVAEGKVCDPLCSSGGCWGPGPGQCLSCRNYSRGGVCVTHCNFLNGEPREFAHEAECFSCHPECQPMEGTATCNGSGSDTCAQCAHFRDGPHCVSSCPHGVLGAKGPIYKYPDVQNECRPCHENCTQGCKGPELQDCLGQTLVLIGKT
measured property: Kd (nM)

{"columns": ["binder", "measured number"],
 "data": [
  ["NRG2-beta (ligand, UniProt O14511-3 341-405, looked up) HARKCNETAKSYCVNGGVCYYIEGINQLSCKCPNGFFGQRCLEKLPLRLYMPDPKQKHLGFELKE", 43.3],
  ["NRG1 (ligand, UniProt Q02297-6 177-241, looked up, also called NRG1_R&D; NRG1-R&D) SHLVKCAEKEKTFCVNGGECFMVKDLSNPSRYLCKCPNEFTGDRCQNYVMASFYKHLGIEFMEAE", 0.389]
]}
